Assay: Plasma vasopressin concentrations and pharmacokinetics after IV or IM vasopressin
Type: in vivo, neonatal piglets
Settings: pig, plasma; 0.4 IU/kg IV, 1 min after administration; anesthetized piglets, arterial blood; n = 5/group; median (IQR); read-out: Plasma vasopressin concentration
metric: level at 1 min
Hey, just the number and the unit after it is fine.

Query :: Return level at 1 min (reported value) for this compound: "NC(=O)CC[C@@H]1NC(=O)[C@H](Cc2ccccc2)NC(=O)[C@H](Cc2ccc(O)cc2)NC(=O)[C@@H](N)CSSC[C@@H](C(=O)N2CCC[C@H]2C(=O)N[C@@H](CCCN=C(N)N)C(=O)NCC(N)=O)NC(=O)[C@H](CC(N)=O)NC1=O"
Result :: 2.2 ng/mL
